Origin of measurements: ChEMBL document CHEMBL1155048

Molecular target: Cathepsin K (Homo sapiens)
Sequence (P43235 whole entry): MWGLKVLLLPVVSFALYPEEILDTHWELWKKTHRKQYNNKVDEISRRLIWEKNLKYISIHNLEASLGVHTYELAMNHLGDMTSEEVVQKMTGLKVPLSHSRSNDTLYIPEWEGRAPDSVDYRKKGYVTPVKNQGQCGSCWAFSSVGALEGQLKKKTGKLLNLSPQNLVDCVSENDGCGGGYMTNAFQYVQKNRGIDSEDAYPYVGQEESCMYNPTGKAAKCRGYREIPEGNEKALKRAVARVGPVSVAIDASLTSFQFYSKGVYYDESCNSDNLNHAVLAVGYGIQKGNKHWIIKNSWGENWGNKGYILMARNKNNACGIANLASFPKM
Assay: Inhibition of human recombinant cathepsin K
Reported IC50 values follow for various compounds

In the examples that follow, each entry is paired with its recorded IC50.
Compound	Experimental system	IC50
CC(C)C(Nc1ccccc1)C(=O)N1CCCCN1C#N (stereo not drawn)	Cathepsin K (Homo sapiens)	25 nM
CC(C)C(Nc1cccc(C(F)(F)F)c1)C(=O)N1CCCCN1C#N (stereo not drawn)	Cathepsin K (Homo sapiens)	23 nM

Turning to the following compound.
Form: compound = CC(C)C(NC(=O)OC(C)(C)C)C(=O)N1CCCCN1C#N (stereo not drawn) ; IC50 = 55 nM
